Values compiled from paper PMC10786891.

assayedSystem: T1, EsCas13d, nuclease-dead (Eubacterium siraeum, UniProt B0MS50, R295A;H300A;R849A;H854A)
T1 sequence: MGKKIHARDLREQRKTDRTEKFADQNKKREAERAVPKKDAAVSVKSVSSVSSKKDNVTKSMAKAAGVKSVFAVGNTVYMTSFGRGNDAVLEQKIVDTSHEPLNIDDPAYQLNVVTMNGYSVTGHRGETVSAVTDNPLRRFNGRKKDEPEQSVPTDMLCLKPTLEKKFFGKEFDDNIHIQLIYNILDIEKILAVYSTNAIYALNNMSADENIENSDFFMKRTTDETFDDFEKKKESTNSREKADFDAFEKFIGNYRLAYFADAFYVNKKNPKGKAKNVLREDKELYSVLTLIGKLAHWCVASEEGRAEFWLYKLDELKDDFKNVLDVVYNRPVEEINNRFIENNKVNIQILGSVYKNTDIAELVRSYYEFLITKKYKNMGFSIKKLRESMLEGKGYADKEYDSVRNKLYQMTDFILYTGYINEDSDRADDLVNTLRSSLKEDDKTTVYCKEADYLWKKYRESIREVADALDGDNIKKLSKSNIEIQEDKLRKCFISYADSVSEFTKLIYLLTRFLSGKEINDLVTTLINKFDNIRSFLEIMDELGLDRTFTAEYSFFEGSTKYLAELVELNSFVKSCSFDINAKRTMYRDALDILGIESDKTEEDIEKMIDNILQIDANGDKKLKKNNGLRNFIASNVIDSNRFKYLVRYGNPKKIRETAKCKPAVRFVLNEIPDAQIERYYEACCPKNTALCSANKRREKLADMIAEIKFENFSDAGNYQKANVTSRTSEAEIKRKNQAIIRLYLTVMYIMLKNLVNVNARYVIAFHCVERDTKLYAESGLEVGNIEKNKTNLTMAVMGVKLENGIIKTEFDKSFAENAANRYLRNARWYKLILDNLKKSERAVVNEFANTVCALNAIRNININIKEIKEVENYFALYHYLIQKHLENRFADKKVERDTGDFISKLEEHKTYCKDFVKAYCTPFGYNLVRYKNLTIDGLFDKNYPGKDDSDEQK
assayProtocol: crRNA (strand 1, pre-loaded); Mg2+; 40 mM Tris-HCl pH 7.5, 150 mM NaCl, 6 mM MgCl2, 1 mM DTT, 0.1% Tween-20, 0.2 mg/ml BSA; 25 C; 10 min per concentration, then washed
measurementContext: tags: His6-TwinStrep-SUMO cleaved; N-terminal SNAP kept (SNAP-Surface 488); label: 3' end held by stalled T7 RNA polymerase

{"columns": ["binder", "Kd"],
 "data": [
  ["target 1 insC 3' of 8,insG 3' of 8 (mixed) RNA 1: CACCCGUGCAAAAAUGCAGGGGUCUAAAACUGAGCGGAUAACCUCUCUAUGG RNA 2: GGGAAUGGAUCCACAUCUACGAAUUCGUACCAUAGAGAGGUUAUCGCCGCUCACCGAGAUCGGAAGAGCACACGU", "10.6 nM"],
  ["target 1 insU 3' of 18,insA 3' of 13 (mixed) RNA 1: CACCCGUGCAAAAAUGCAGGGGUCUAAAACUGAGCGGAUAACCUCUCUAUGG RNA 2: GGGAAUGGAUCCACAUCUACGAAUUCGUACCAUAUGAGAGAGUUAUCCGCUCACCGAGAUCGGAAGAGCACACGU", "22.6 nM"],
  ["target 1 insG 3' of 22,insA 3' of 6 (mixed) RNA 1: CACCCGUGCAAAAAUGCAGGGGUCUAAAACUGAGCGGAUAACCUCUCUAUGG RNA 2: GGGAAUGGAUCCACAUCUACGAAUUCGUACGCAUAGAGAGGUUAUCCAGCUCACCGAGAUCGGAAGAGCACACGU", "54 nM"],
  ["target 1 G15A,A16G (mixed) RNA 1: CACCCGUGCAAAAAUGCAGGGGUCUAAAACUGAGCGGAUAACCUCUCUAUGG RNA 2: GGGAAUGGAUCCACAUCUACGAAUUCGUACCAUAGGAAGGUUAUCCGCUCACCGAGAUCGGAAGAGCACACGU", "51 nM"],
  ["target 2 MT 5'PFS CGG 3'PFS CAC (mixed) RNA 1: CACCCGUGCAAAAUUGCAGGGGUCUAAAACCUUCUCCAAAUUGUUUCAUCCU RNA 2: GGGAAUGGAUCCACAUCUACGAAUUCCGGAGGAUGAAACAAUUUGGAGAAGCACAGAUCGGAAGAGCACACGU", "6.8 nM"],
  ["target 2 MT 5'PFS ACA 3'PFS CUU (mixed) RNA 1: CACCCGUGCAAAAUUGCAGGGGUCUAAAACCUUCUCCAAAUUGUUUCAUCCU RNA 2: GGGAAUGGAUCCACAUCUACGAAUUCACAAGGAUGAAACAAUUUGGAGAAGCUUAGAUCGGAAGAGCACACGU", "12 nM"],
  ["target 3 U7G,U8C (mixed) RNA 1: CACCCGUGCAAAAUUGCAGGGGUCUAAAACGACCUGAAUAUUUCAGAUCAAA RNA 2: GGGAAUGGAUCCACAUCUACGAAUUCGUUUUUGAUCUGAAAUACGCAGGUCUGCAGAUCGGAAGAGCACACGU", "70 nM"],
  ["target 3 U2G,A12U (mixed) RNA 1: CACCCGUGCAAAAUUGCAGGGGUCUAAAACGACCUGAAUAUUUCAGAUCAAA RNA 2: GGGAAUGGAUCCACAUCUACGAAUUCGUUUUUGAUCUGAUAUAUUCAGGGCUGCAGAUCGGAAGAGCACACGU", "46.5 nM"]
]}
